experiment: Clearance in iv dosed rat; type: ADME, organism-based; conditions: in vivo
# clearance listing for each entry below

compound-string | clearance
c1ccc([C@H]([C@@H](c2ccccc2)N2CCCC2)N2CCCC2)cc1 | 91.8 mL/min/kg
c1ccc([C@H]([C@@H](c2ccccc2)N2CCCCC2)N2CCCCC2)cc1 | 13.1 mL/min/kg
c1ccc([C@@H]([C@H](c2ccccc2)N2CCCC2)N2CCCC2)cc1 | 10.8 mL/min/kg

====

experiment: Dissociation constant, pKa of the compound; type: physicochemical
Some molecules, each annotated with its measured pKa.

compound-string | pKa
c1ccc([C@@H]([C@H](c2ccccc2)N2CCCC2)N2CCCC2)cc1 | 10.5
c1ccc([C@@H]([C@H](c2ccccc2)N2CCCCC2)N2CCCCC2)cc1 | 11.4
c1ccc([C@H]([C@@H](c2ccccc2)N2CCCCC2)N2CCCCC2)cc1 | 11
c1ccc([C@H]([C@@H](c2ccccc2)N2CCCC2)N2CCCC2)cc1 | 10.4

====

assay: Octanol-water distribution coefficient, log D of the compound at pH 7.4 by shake-flask method; format: physicochemical
// boundary case: logD equal to 4 maps to False; strictly smaller maps to True

compound-string | assigned-label
c1ccc([C@H]([C@@H](c2ccccc2)N2CCCC2)N2CCCC2)cc1 | True
c1ccc([C@@H]([C@H](c2ccccc2)N2CCCC2)N2CCCC2)cc1 | True
CC(C)[C@@H]1CC[C@@H](C)C[C@@H]1P(=O)(c1ccccc1)c1ccccc1 | False

====

test: Intrinsic clearance in human hepatocytes assessed per million cells; assay type: ADME, cell-based, Hepatocyte; conditions: read-out: CLH

compound-string | hepatocyte CLint
c1ccc([C@@H]([C@H](c2ccccc2)N2CCCC2)N2CCCC2)cc1 | < 4 µL/min/1e6 cells
c1ccc([C@H]([C@@H](c2ccccc2)N2CCCCC2)N2CCCCC2)cc1 | < 4 µL/min/1e6 cells
c1ccc([C@@H]([C@H](c2ccccc2)N2CCCCC2)N2CCCCC2)cc1 | < 4 µL/min/1e6 cells
c1ccc([C@H]([C@@H](c2ccccc2)N2CCCC2)N2CCCC2)cc1 | < 4 µL/min/1e6 cells

====

test: Fraction unbound in human plasma; assay type: ADME, cell-free
assay-endpoint: fraction unbound

compound-string | assay-endpoint | reported-result
c1ccc([C@H]([C@@H](c2ccccc2)N2CCCC2)N2CCCC2)cc1 | fraction unbound | 0.17
c1ccc([C@@H]([C@H](c2ccccc2)N2CCCCC2)N2CCCCC2)cc1 | fraction unbound | 0.099
c1ccc([C@@H]([C@H](c2ccccc2)N2CCCC2)N2CCCC2)cc1 | fraction unbound | 0.17
c1ccc([C@H]([C@@H](c2ccccc2)N2CCCCC2)N2CCCCC2)cc1 | fraction unbound | 0.065

====

molecular target: Cytochrome P450 3A4 (Homo sapiens, UniProt P08684); assay: Inhibition of human recombinant CYP3A4 expressed in Escherichia coli
Sequence (P08684 whole entry): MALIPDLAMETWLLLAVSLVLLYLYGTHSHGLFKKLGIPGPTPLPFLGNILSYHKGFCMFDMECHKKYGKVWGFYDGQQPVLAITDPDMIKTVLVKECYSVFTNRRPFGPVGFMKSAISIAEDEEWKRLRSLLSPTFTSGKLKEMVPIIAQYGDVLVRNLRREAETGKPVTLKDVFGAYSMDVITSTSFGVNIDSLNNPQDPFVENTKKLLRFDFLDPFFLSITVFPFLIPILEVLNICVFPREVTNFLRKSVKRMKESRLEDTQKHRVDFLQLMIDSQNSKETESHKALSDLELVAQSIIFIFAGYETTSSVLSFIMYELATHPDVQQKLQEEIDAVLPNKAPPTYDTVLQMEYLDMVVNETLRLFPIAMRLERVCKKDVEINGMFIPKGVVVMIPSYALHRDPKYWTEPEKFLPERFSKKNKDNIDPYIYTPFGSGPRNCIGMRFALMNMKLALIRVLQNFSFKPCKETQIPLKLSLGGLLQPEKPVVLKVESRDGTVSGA
assay-endpoint: IC50

compound-string | assay-endpoint | reported-result
c1ccc([C@@H]([C@H](c2ccccc2)N2CCCCC2)N2CCCCC2)cc1 | IC50 | 15.8 µM
c1ccc([C@H]([C@@H](c2ccccc2)N2CCCCC2)N2CCCCC2)cc1 | IC50 | 20 µM
c1ccc([C@@H]([C@H](c2ccccc2)N2CCCC2)N2CCCC2)cc1 | IC50 | 12.6 µM
c1ccc([C@H]([C@@H](c2ccccc2)N2CCCC2)N2CCCC2)cc1 | IC50 | 12.6 µM
